Reference for the values: ChEMBL document CHEMBL3988442

Target: AMP-activated protein kinase, AMPK (Homo sapiens) (UniProt P54646+O43741+P54619+Q9UGJ0+Q9Y478+Q13131+Q9UGI9)
Experiment: AMP-dependent Kinase enzyme assay. An in vitro enzyme assay that detects ADP turnover that is directly proportional to AMPK activity. This uses naive AMPK that is activated during the assay with MK-8722
Type: functional
Design: scale not given: direction of the effect not stated beside the values
Details: 30 µM
List of Percent Effect values.
property-measured: Percent Effect (%)

INSERT INTO results (molecule, reported_value) VALUES
  ('CC(C(=O)N1CCN(c2ccccc2Cl)CC1)n1cncn1 (stereo unspecified)', 2.71),
  ('O=C(CCc1cscn1)N1CCCC1c1noc(C2CC2)n1 (stereo unspecified)', -11.8),
  ('COc1ccc(C)cc1CNCc1ccc(-n2nc(C)cc2C)nc1', 3.46),
  ('CO[C@H]1CO[C@@]2(CCCN(C(=O)C3=CCCCC3)C2)C1', 1.22),
  ('O=C(c1ncccn1)N1C[C@H]2CCC[C@@]2(COCC2CCOCC2)C1', 1.99),
  ('Cc1cn(CC(=O)NC2CCN(S(C)(=O)=O)CC2)c2ccccc12', 0.231),
  ('CC(C)NC(=O)[C@@H]1C[C@H](N)CN1C(=O)c1cc2ccccc2[nH]c1=O', -9.81),
  ('CCc1ccccc1-n1cc(O)c(C(=O)N2CCCCC2)n1', 5.9),
  ('Cc1cnn(CC2CN(CC(=O)Nc3sccc3C#N)CCO2)c1 (stereo unspecified)', 0.0642),
  ('COc1ccc(C(=O)N2Cc3c(Cn4ccnc4)nn(C)c3C2)cc1', 5.76),
  ('COc1ccc2nnc(CCCC(=O)NCc3cccn3C)n2n1', -8.56);

* * *

System: Trypanosoma cruzi
Test: Trypanosoma cruzi phosphomannomutase and mannose-1-phosphate guanylyltransferase assay
Type: functional
Set-up: scale not given: direction of the effect not stated beside the values
Settings: 10 µM
List of Percent Effect values.
property-measured: Percent Effect (%)

INSERT INTO assay_data (molecule, reported_value) VALUES
  ('CCc1nc(C2CCCN(C(=O)c3cccc4cn[nH]c34)C2)no1 (centres undefined)', -6.41),
  ('CC(C)OCCCNC(=O)CN1CCC(N2CCN(C)C2=O)CC1', 4.82),
  ('COCCC(=O)N1CC[C@@H]2O[C@@H](C)C[C@H]2C1', 2.36),
  ('CCNC(=O)c1nc2c(s1)CCCN2S(C)(=O)=O', 0.772),
  ('O=C(N1CCOCC1)N1CCc2ncnc(NC3CC3)c2CC1', -7.81),
  ('Cc1cn(CC(=O)NC2CCN(S(C)(=O)=O)CC2)c2ccccc12', -2.44),
  ('Cn1cc(CN2C[C@@H]3COC[C@@H](C(=O)N4CCCCO4)[C@@H]3C2)cn1', 0.787),
  ('O=C(c1ccncc1)N1CCC(c2nc(O)cc(-c3ccncc3)n2)C1 (centres undefined)', 0.984),
  ('Cc1cnn(CC2CCCN2C(=O)CCc2ccsc2)c1 (centres undefined)', 3.82),
  ('Cc1noc([C@@H]2C[C@H]3OCC[C@H]3N(S(=O)(=O)c3cccnc3)C2)n1', 5.75),
  ('Cn1cccc1C(=O)N1CCC2(CC1)CN(c1cncnc1)C(=O)CO2', -6.69),
  ('CCn1cc(CN(C)S(=O)(=O)c2ccc(Cl)cc2)cn1', -1.97),
  ('CCCC(=O)Nc1sc(C(=O)OCC)c(C)c1C#N', -5.42),
  ('CCOc1cc(C)nc(N2CCN(C(=O)c3ccc[nH]3)CC2)n1', -6.59),
  ('CN(Cc1ccsc1)C(=O)c1cc2c([nH]c1=O)CCCC2=O', -2.32),
  ('Oc1nc(N2CCOCC2)nc2c1CCN(Cc1cccnc1)CC2', -1.98),
  ('COCc1ccccc1CNc1cc(N2CCCC2CO)ncn1 (centres undefined)', -2.43),
  ('O=C(NCCc1ccsc1)Nc1cccnc1N1CCCC1', 3.64),
  ('CCN(CC1CN(CCc2ccccn2)CCO1)c1cccnn1 (centres undefined)', 4.77),
  ('Cc1cc(C(=O)N2CCc3nnc(N)cc3C2)c(C)n1-c1cccnc1', 0.923),
  ('CN1CCN(Cc2cn3c(n2)CN(Cc2cccnc2)CC3)CC1', -7.14),
  ('O=C(NC(CO)CO)c1coc(COc2cccc(F)c2)n1', 2.44),
  ('CCn1ccnc1CN1CCN(Cc2ccccn2)CC1C (centres undefined)', -3.91),
  ('O=C(N[C@@H]1CN(Cc2ccccc2)C[C@@H]2CCCO[C@@H]21)C1CC1', -2.32);

* * *

Target: AMP-activated protein kinase, AMPK (Homo sapiens) (UniProt P54646+O43741+P54619+Q9UGJ0+Q9Y478+Q13131+Q9UGI9)
Assay: AMP-dependent Kinase enzyme assay. An in vitro enzyme assay that detects ADP turnover that is directly proportional to AMPK activity. This uses naive AMPK that is activated during the assay with MK-8722
Assay type: functional
Design: scale not given: direction of the effect not stated beside the values
Details: 30 µM
property-measured: Percent Effect

INSERT INTO results (molecule, property_measured, reported_value) VALUES
  ('Cc1noc([C@H]2COC[C@H]3CN(C(=O)Cc4ccc(F)cc4)C[C@H]32)n1', 'Percent Effect', '-2.57%'),
  ('O=C([C@@H]1CC[C@@H]2[C@@H](CCN2Cc2cccc(F)c2)O1)N1CCCCO1', 'Percent Effect', '4.08%'),
  ('c1cnc(N2CCOC3(CCN(CC4CCCCC4)CC3)C2)nc1', 'Percent Effect', '14.1%'),
  ('CC(C)n1cc(CN2CCCN(C(=O)c3nccnc3N)CC2)cn1', 'Percent Effect', '-6.54%'),
  ('Cc1cc(=O)n(CC(=O)Nc2ccc(C(N)=O)cc2)nc1C', 'Percent Effect', '-2.6%'),
  ('Cc1nc(CN2CCN(C(=O)c3sccc3C3CC3)CC2)cs1', 'Percent Effect', '8.03%'),
  ('NC(=O)c1ccc(NC(=O)CCN2CCCC(N3CCCC3)C2)cc1 (centres undefined)', 'Percent Effect', '-4.04%'),
  ('CCC(=O)N1CCC(c2nnc(Cn3cccn3)n2C2CC2)CC1', 'Percent Effect', '-4.09%'),
  ('CC(=O)N1CCCN(c2nccc(-c3cn(C)nc3C)n2)CC1', 'Percent Effect', '-0.173%'),
  ('CN1CCOC(CN(C(=O)Cc2ccccc2F)c2nccs2)C1 (centres undefined)', 'Percent Effect', '-3.71%'),
  ('Cc1ccc(CCC(=O)N(C)CCN2CCOCC2)c(C)c1', 'Percent Effect', '4.45%'),
  ('O=C(Cn1cc(C(=O)O)ccc1=O)Nc1ccc(Cl)cc1F', 'Percent Effect', '-5.95%'),
  ('c1coc(-c2noc(CN3CC(n4cccn4)C3)n2)c1', 'Percent Effect', '3%'),
  ('CC(C(=O)N1CCC(Nc2cccnn2)CC1)n1ccnc1 (centres undefined)', 'Percent Effect', '-6.39%'),
  ('O=C(Nc1ccccc1F)N(CCO)Cc1ccsc1', 'Percent Effect', '2.24%'),
  ('COc1ccc(-n2cnnc2SCCC#N)cn1', 'Percent Effect', '0.911%'),
  ('Cc1noc(C)c1CNc1cc(N2CCCC2CO)ncn1 (centres undefined)', 'Percent Effect', '-25.2%'),
  ('CCN(CC)c1ccc(C(=O)N(C)Cc2c(C)noc2C)cn1', 'Percent Effect', '-4.84%'),
  ('Cc1cnn(CC2CCCCN2C(=O)CN(C)C2CC2)c1 (centres undefined)', 'Percent Effect', '-0.801%'),
  ('O=C1CCCN1Cc1ncn2c1CN(C(=O)c1cccc(F)c1)CCC2', 'Percent Effect', '-2.98%'),
  ('COCC(c1cccc(C(F)(F)F)c1)N(C)C(=O)c1cc(C)n[nH]1 (centres undefined)', 'Percent Effect', '-1.4%'),
  ('CN1C(=O)C(c2cccnc2)CC12CCN(C(=O)c1cccn1C)CC2 (centres undefined)', 'Percent Effect', '-0.439%'),
  ('COCc1cccc(CNC(=O)CN2CCCC2c2noc(C)n2)c1 (centres undefined)', 'Percent Effect', '-2.93%'),
  ('CC(CNC(=O)c1ccc(F)cc1Cl)N1CCCC1 (centres undefined)', 'Percent Effect', '4.21%');

* * *

Target: Chromo domain-containing protein 1 (Saccharomyces cerevisiae (strain ATCC 204508 / S288c) (Baker's yeast)) (UniProt P32657)
Sequence (P32657 whole entry, the tested form may be a part): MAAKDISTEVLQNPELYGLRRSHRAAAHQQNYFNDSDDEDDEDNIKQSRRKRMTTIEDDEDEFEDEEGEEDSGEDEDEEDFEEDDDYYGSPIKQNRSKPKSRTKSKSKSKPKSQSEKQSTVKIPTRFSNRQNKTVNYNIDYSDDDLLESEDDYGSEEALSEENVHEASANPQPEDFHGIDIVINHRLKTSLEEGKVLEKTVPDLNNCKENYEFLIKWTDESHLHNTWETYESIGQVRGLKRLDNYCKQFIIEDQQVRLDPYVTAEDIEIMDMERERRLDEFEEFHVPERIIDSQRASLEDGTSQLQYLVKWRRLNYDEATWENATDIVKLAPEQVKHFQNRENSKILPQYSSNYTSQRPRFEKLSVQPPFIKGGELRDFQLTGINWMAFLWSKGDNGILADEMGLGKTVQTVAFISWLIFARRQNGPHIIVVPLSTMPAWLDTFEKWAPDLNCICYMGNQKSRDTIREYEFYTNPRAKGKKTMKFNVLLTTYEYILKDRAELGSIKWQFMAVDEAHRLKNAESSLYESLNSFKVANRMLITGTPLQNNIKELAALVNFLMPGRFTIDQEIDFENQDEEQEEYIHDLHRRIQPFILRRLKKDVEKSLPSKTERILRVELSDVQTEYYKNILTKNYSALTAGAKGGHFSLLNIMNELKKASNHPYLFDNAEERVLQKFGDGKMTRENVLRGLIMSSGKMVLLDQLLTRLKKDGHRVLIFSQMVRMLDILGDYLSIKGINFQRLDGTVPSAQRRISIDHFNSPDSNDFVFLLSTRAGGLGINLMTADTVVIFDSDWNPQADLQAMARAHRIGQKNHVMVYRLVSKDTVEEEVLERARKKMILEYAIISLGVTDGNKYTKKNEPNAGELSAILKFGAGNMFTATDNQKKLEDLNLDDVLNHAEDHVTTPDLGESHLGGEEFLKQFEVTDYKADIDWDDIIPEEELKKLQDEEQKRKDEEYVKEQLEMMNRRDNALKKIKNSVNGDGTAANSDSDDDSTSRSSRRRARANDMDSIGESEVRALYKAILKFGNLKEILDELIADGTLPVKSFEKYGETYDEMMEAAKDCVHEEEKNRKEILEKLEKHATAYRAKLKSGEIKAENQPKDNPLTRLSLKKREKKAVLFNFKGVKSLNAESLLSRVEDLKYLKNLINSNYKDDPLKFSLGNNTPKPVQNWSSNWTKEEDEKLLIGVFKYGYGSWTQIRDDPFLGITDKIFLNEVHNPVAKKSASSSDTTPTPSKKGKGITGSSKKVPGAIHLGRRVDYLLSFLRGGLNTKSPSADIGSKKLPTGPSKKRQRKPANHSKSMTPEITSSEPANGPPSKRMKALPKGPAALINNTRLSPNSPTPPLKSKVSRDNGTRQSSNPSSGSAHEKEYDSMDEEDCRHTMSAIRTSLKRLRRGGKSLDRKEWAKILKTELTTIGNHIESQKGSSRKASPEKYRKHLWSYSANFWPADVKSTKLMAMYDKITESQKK
Assay: ScCHD-1 Enzyme Inhibition Assay; note: in the data most compounds retested in dose-response had high values
Assay type: functional
Parameters: scale not given: direction of the effect not stated beside the values
Settings: 30 µM
List of Percent Effect values.
property-measured: Percent Effect (%)

INSERT INTO measurements (compound, reported_value) VALUES
  ('O=C(c1ccc2c(c1)CCCC2)N1CCOCC1c1ncon1 (configuration not stated)', -8.29),
  ('CC(C)Cc1noc(CN2CCN(CCO)CC2)n1', -8.48),
  ('O=C(NCC1CC1)[C@@H]1CCO[C@@H]2CCN(Cc3ccco3)C[C@H]21', -0.123),
  ('CC(C)[C@H](NC(=O)NC1CCS(=O)(=O)C1)C(=O)Nc1cccnc1 (some centres not stated)', -7.36),
  ('CCn1cc2c(n1)CN(Cc1ccncc1)CC2COCC1CC1 (configuration not stated)', -6.9),
  ('Cc1ccc(N2CCCC3(COCCN(c4nccs4)C3)C2)nn1 (configuration not stated)', -1.92),
  ('CCCn1nc2c(cc1=O)CN(CCCN1CCCC1=O)CC2', -3.69),
  ('Cc1ccc(C)c(C(NC(=O)C2CC2)c2cccnc2)c1 (configuration not stated)', -10.3),
  ('Cc1cc(C[S+]([O-])CC(=O)NCC(C)C)no1 (configuration not stated)', -5.33),
  ('CCN(CC)C(=O)CCNc1cncc(-n2nc(C)cc2C)n1', -6.4),
  ('Cc1cnn(CC2CN(c3cnc4ccccc4n3)CCO2)c1 (configuration not stated)', -12.5),
  ('O=C(c1ccncc1F)N1CCc2ncnc(-c3ccncc3)c2CC1', 0.761);
